Target: CYP2D6 (Homo sapiens)
Construct: purchased BD Bioscience
Sequence (P10635 whole entry): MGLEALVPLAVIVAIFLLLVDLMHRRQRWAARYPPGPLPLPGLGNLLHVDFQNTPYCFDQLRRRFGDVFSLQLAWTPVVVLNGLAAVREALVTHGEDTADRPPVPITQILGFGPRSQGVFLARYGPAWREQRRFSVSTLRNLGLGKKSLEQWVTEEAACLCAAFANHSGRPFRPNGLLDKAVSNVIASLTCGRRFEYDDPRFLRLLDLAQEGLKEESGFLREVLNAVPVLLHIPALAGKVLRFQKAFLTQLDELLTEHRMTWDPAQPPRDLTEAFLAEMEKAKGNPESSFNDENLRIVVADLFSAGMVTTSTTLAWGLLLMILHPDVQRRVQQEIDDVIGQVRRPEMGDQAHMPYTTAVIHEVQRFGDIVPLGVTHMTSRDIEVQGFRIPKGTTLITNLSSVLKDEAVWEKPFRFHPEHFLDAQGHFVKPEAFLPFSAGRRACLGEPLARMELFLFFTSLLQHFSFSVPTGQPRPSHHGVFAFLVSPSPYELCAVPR
Assay: CYP2D6 inhibition, MAMC substrate
Assay type: in vitro ADME
Conditions: human, microsomes containing human recombinant CYP2D6, probe 7-methoxy-4-(aminomethyl)-coumarin (MAMC); 10 μM test compound; average of six replicate experiments; read-out: Inhibition of CYP2D6, % inhib. at 10 μM
Procedure: Protocol. The inhibitory activities of AT and NT, (+)-E-10-OH-NT and (−)-E-10-OH-NT on cytochrome P450 function were tested using the methods of Chauret et al., 2001, using 7-methoxy-4-(aminomethyl)-coumarin (MAMC) (Venhorst et al., 2000) as substrate. […] Conversion of MAMC to 7-hydroxy-4-(aminomethyl)coumarin was measured using a PerkinElmer Fusion with a 390 nm excitation filter and a 460 nm emission filter.
property name: inhibition at 10 µM (%)
Output spec: scalar in %, unitless text.

{"compound": "CNCC/C=C1\\c2ccccc2C[C@H](O)c2ccccc21 (stereo in doubt) [(+)-E-10-OH-NT]", "unit string": "%", "inhibition at 10 µM": 40}

Turning now to a further record.
Prompt: Observed inhibition at 10 µM on CYP2D6 (Homo sapiens) for CNCC/C=C1\c2ccccc2C[C@@H](O)c2ccccc21 (stereo in doubt) [(−)-E-10-OH-NT] , please.
Response: 37

* * *

Sequence of the target: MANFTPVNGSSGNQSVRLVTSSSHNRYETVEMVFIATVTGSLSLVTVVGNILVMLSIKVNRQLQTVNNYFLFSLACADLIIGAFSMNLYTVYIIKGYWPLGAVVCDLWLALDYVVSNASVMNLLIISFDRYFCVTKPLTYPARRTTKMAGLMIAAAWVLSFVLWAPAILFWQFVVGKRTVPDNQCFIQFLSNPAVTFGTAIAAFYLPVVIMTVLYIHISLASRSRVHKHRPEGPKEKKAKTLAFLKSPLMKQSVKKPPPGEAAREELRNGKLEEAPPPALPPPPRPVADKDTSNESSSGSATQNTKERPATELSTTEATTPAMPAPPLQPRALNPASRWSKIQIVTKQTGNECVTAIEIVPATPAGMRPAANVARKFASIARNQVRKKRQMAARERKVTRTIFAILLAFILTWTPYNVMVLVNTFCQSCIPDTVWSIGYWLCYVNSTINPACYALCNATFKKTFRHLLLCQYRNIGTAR
property name: pKi
Scale: negative log10 of molar concentration, which is what pKi denotes.

Prompt: Quick one: pKi of CNCC/C=C1\c2ccccc2C[C@H](O)c2ccccc21 (stereo in doubt) [(+)-E-10-OH-NT] ?
Response: 6.41

Prompt: Do the same for CN(C)CCC=C1c2ccccc2CCc2ccccc21 [AT, amitriptyline, reference compound] please
Response: 8.44

Prompt: Next molecule: CNCC/C=C1\c2ccccc2C[C@@H](O)c2ccccc21 (stereo in doubt) [(−)-E-10-OH-NT]
Response: 6.77

* * *

Form field: pKi (one value per entry).
Target: human muscarinic receptor M2 (Homo sapiens)
Sequence (P08172 1-466): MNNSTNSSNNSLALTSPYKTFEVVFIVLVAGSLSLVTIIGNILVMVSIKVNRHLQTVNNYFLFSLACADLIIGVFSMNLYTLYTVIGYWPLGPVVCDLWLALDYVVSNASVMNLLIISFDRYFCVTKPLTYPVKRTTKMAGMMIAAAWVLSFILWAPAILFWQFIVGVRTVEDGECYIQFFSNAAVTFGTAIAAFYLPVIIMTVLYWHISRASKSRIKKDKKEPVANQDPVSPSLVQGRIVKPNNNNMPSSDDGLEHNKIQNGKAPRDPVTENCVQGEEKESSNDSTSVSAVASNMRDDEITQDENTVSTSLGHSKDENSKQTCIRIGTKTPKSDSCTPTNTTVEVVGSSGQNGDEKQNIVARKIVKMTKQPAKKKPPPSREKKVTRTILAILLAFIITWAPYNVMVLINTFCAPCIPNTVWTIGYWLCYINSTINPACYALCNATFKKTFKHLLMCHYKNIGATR
Please treat pKi as minus the base-10 logarithm of the molar concentration.

{"molecule": "CNCC/C=C1\\c2ccccc2C[C@@H](O)c2ccccc21 (stereo in doubt) [(−)-E-10-OH-NT]", "pKi": 5.59}
{"molecule": "CNCCC=C1c2ccccc2CCc2ccccc21 [NT, nortriptyline, reference compound]", "pKi": 6.66}

Prompt: Which pKi is reported with human muscarinic receptor M2 (Homo sapiens) for this entry: CNCC/C=C1\c2ccccc2C[C@H](O)c2ccccc21 (stereo in doubt) [(+)-E-10-OH-NT] ?
Response: 5.38

* * *

Molecular target: DA uptake, rat striatum synaptosomes (Rattus norvegicus, UniProt P23977)
Construct: into rat striatum synaptosomes
Sequence (P23977 whole entry): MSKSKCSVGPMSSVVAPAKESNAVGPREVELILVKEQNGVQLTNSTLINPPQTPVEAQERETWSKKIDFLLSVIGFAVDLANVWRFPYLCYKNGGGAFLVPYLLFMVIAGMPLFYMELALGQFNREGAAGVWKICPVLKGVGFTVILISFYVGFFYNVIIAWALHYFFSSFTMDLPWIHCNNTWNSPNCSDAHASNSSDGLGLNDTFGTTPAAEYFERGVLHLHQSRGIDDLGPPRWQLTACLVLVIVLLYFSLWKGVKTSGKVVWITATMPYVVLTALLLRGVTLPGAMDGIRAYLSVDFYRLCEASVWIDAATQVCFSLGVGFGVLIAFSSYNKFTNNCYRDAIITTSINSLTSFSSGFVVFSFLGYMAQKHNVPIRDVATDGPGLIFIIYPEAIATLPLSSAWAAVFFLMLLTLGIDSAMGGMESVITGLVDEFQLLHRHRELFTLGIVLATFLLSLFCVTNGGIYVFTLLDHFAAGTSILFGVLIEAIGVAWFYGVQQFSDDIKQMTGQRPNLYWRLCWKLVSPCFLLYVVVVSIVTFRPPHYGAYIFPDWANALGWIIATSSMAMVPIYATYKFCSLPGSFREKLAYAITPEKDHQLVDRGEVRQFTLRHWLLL
Experiment: Inhibition of [3H]-DA uptake into synaptosomes
Conditions: read-out: Monoamine Uptake Inhibition, DA, IC50
// IC50 lookup, one value per entry
Quick note: give the figure in nM, leave out the unit.

{"compound": "CN(C)CCC=C1c2ccccc2CCc2ccccc21 [AT, amitriptyline, reference compound]", "IC50, nM": 2400}

Then this compound:
Prompt: Give the measured IC50 of CNCCC=C1c2ccccc2CCc2ccccc21 [NT, nortriptyline, reference compound] .
Response: 1700

* * *

Below are pKi values measured for human muscarinic receptor M1 (Homo sapiens).
// field semantics: pKi = negative decimal log of concentration (mol/L)

{"compound": "CNCC/C=C1\\c2ccccc2C[C@@H](O)c2ccccc21 (stereo in doubt) [(−)-E-10-OH-NT]", "pKi": 6.39}

Kindly review the next compound as well.
Prompt: State the recorded pKi for this entry: CNCC/C=C1\c2ccccc2C[C@H](O)c2ccccc21 (stereo in doubt) [(+)-E-10-OH-NT]
Response: 6.15

* * *

# Lookup of reported Ki keyed by entry
Target: α1a adrenergic receptor (rat salivary gland membranes) (Rattus norvegicus)
Construct: tested using membranes prepared from rat salivary gland; from tissue; host or cells: rat salivary gland membranes
Sequence (P43140 1-466): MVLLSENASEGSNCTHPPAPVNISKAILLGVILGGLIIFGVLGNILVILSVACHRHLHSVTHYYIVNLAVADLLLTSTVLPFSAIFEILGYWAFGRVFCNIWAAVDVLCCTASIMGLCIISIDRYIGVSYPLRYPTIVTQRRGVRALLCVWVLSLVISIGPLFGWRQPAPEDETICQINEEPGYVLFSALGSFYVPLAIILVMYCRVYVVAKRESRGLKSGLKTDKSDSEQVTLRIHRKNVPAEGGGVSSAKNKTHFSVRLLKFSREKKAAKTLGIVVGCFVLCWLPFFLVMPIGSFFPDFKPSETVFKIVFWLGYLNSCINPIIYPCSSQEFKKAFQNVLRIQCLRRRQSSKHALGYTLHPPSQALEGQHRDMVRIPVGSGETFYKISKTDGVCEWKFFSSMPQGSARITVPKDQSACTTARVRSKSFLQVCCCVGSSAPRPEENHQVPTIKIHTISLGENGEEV
Test: α1a adrenergic receptor binding, [3H]prazocine
Conditions: read-out: Affinity at α1a adrenergic receptor, Ki
# number only, unit nM dropped from output

Guide cases for Ki, answers given:
{"compound": "CNCC/C=C1\\c2ccccc2C[C@H](O)c2ccccc21 (stereo in doubt) [(+)-E-10-OH-NT]", "value measured": 700}
{"compound": "CN(C)CCC=C1c2ccccc2CCc2ccccc21 [AT, amitriptyline, reference compound]", "value measured": 21}

Now consider a different compound.
Prompt: // Ki lookup, key: CNCC/C=C1\c2ccccc2C[C@@H](O)c2ccccc21 (stereo in doubt) [(−)-E-10-OH-NT]
Response: 3000

* * *

Heads up, these compounds all have Ki values measured for human dopamine transporter (hDAT) (Homo sapiens, UniProt Q01959).

{"compound": "CNCC/C=C1\\c2ccccc2C[C@H](O)c2ccccc21 (stereo in doubt) [(+)-E-10-OH-NT]", "system tested": "human dopamine transporter (hDAT) (Homo sapiens, UniProt Q01959)", "Ki": "> 1000 nM"}
{"compound": "CN(C)CCC=C1c2ccccc2CCc2ccccc21 [AT, amitriptyline, reference compound]", "system tested": "human dopamine transporter (hDAT) (Homo sapiens, UniProt Q01959)", "Ki": "2100 nM"}

From here, focus on the item given below.
Prompt: Recorded Ki for CNCC/C=C1\c2ccccc2C[C@@H](O)c2ccccc21 (stereo in doubt) [(−)-E-10-OH-NT] , please?
Response: > 1000 nM

* * *

Target: human muscarinic receptor M5 (Homo sapiens)
Sequence (P08912 whole entry): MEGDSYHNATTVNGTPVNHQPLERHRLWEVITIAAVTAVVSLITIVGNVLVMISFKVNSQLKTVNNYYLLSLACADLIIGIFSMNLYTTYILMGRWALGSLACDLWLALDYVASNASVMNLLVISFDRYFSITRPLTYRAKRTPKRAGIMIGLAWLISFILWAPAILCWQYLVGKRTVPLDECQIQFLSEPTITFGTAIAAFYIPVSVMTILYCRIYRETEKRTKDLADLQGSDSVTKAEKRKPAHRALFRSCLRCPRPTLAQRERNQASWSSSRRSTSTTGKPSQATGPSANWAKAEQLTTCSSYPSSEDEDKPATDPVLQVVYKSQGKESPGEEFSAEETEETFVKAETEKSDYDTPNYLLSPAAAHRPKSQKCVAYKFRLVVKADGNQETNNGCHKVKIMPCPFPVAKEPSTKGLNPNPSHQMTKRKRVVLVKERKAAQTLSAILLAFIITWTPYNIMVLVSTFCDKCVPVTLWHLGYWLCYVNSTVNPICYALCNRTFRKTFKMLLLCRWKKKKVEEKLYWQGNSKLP
# Ki per entry
Reply numerically in nM, unit not repeated.

For orientation, consider the following solved cases.
{"compound": "CN(C)CCC=C1c2ccccc2CCc2ccccc21 [AT, amitriptyline, reference compound]", "system tested": "human muscarinic receptor M5 (Homo sapiens)", "Ki [nM]": 3.5}
{"compound": "CNCC/C=C1\\c2ccccc2C[C@@H](O)c2ccccc21 (stereo in doubt) [(−)-E-10-OH-NT]", "system tested": "human muscarinic receptor M5 (Homo sapiens)", "Ki [nM]": 150}
{"compound": "CNCC/C=C1\\c2ccccc2C[C@H](O)c2ccccc21 (stereo in doubt) [(+)-E-10-OH-NT]", "system tested": "human muscarinic receptor M5 (Homo sapiens)", "Ki [nM]": 280}

Prompt: Entry under review: CNCCC=C1c2ccccc2CCc2ccccc21 [NT, nortriptyline, reference compound] . Reported Ki?
Response: 15
